target: Melanocortin receptor 5 (Homo sapiens, UniProt P33032); format: cell-based, HEK293
Sequence (P33032 whole entry): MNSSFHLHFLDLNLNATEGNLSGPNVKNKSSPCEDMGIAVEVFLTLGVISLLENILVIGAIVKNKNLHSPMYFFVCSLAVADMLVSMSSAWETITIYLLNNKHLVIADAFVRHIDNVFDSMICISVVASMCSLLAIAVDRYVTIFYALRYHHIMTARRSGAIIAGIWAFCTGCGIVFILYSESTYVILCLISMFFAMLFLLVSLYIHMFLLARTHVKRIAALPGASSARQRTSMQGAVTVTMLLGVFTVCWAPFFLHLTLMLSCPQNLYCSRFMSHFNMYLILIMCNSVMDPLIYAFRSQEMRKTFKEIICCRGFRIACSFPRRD
Where a SMILES comes first, the peptide text is derived from it. [ ]: non-standard residue; d: D form. d2Nal = N[C@H](Cc1ccc2ccccc2c1)C(=O)O; Nle = CCCC[C@H](N)C(=O)O
Exercise: for every item that follows, state its recorded IC50.
Supply the numeric figure in nM, leaving out any unit text.

Qu. Could you tell me which IC50 is on file for CCCC[C@H](NC(=O)[C@@H](NC(=O)[C@@H](N)Cc1ccc(O)cc1)C(C)C)C(=O)NCC(=O)N1CCC[C@H]1C(=O)N[C@@H](Cc1ccccc1)C(=O)N[C@@H](CCCN=C(N)N)C(=O)N[C@H](Cc1ccc2ccccc2c1)C(=O)N[C@@H](CC(=O)O)C(=O)N[C@@H](CCCN=C(N)N)C(=O)N[C@@H](Cc1ccccc1)C(=O)NCC(N)=O ?
Ans. 650

Qu. // returns reported IC50 for input CCCC[C@H](NC(=O)[C@@H](NC(=O)[C@@H](N)Cc1ccc(O)cc1)C(C)C)C(=O)NCC(=O)N1CCC[C@H]1C(=O)N[C@H](Cc1ccc2ccccc2c1)C(=O)N[C@@H](CCCN=C(N)N)C(=O)N[C@H](Cc1ccc2ccccc2c1)C(=O)N[C@@H](CC(=O)O)C(=O)N[C@@H](CCCN=C(N)N)C(=O)N[C@@H](Cc1ccccc1)C(=O)NCC(N)=O
Ans. 2

Qu. What measured IC50 goes with CCCC[C@H](NC(=O)[C@@H](NC(=O)[C@@H](N)Cc1ccc(O)cc1)C(C)C)C(=O)NCC(=O)N[C@@H](Cc1cnc[nH]1)C(=O)N[C@H](Cc1ccc2ccccc2c1)C(=O)N[C@@H](CCCNC(=N)N)C(=O)N[C@H](Cc1ccccc1)C(=O)N[C@@H](CC(=O)O)C(=O)N[C@@H](CCCNC(=N)N)C(=O)N[C@@H](Cc1ccccc1)C(=O)NCC(N)=O (H-YV[Nle]GH[d2Nal]R[dF]DRFG-NH2) ?
Ans. 3.3
